Where do these numbers come from? They come from paper PMC7290078.

# Target Entity: CRF1 receptor (hCRF1α) (Homo sapiens)
# Construct: host or cells: Cos7 cells, transient transfection (PEI), pcDNA3.0/3.1 vector
# Sequence (P34998 24-415): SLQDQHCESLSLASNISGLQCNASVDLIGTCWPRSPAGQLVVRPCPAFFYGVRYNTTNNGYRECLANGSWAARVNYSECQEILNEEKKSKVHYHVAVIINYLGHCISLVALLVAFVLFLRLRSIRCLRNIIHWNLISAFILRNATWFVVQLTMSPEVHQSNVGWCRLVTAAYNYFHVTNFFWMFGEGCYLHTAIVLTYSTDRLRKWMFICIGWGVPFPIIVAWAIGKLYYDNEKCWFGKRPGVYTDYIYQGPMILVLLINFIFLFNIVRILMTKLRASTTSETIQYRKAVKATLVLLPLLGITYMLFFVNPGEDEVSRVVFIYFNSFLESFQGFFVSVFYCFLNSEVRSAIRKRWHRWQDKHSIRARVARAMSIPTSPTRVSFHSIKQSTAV
# Assay Details: cAMP accumulation (LANCE) in Cos7 cells transfected with hCRF1α, agonist stimulation
# Format: cell-based
# Settings: cAMP, hCRF1α, Cos7; 15 min at 37°C, 1 mmol/L IBMX; 1 pmol/L to 1 µmol/L agonist; mean ± SEM, n = 5
No end group written: not given here.
Readout Name: pEC50
Note on pEC50: it is the negative log10 of concentration, concentration in mol/L.

Dear colleague, I am looking for the recorded pEC50 of the following substance: DNPSLSIDLTFHLLRTLLELARTQSQRERAEQNRIIFDSV-NH2 [UCN1] 9.97
